- System: Aminopeptidase N (Sus scrofa, UniProt P15145)
- Protocol details: Inhibition of pig kidney microsomal aminopeptidase N after 30 mins by UV-VIS spectrophotometry
- Condition description: read-out: IC50
So basically: is IC50 under 200 µM? Then Satisfied. Not under? Then Not satisfied.

Completed entries (count: 5):
Smiles record: COc1ccc(/C=C/C(=O)N[C@@H](CCC(=O)O)C(=O)Nc2ccc(C)cc2)cc1OC
System: Aminopeptidase N (Sus scrofa, UniProt P15145)
Classification: Satisfied
--
Smiles record: COc1ccc(/C=C/C(=O)N[C@@H](CCC(=O)O)C(=O)Nc2ccccc2F)cc1OC
System: Aminopeptidase N (Sus scrofa, UniProt P15145)
Classification: Satisfied
--
Smiles record: COc1ccc(/C=C/C(=O)N[C@@H](CCC(=O)O)C(=O)Nc2cccc(Cl)c2)cc1OC
System: Aminopeptidase N (Sus scrofa, UniProt P15145)
Classification: Satisfied
--
Smiles record: COc1ccc(/C=C/C(=O)N[C@@H](CCC(=O)Nc2ccc(Cl)cc2)C(=O)Nc2ccc(Cl)cc2)cc1OC
System: Aminopeptidase N (Sus scrofa, UniProt P15145)
Classification: Not satisfied
--
Smiles record: COc1ccc(/C=C/C(=O)N[C@@H](CCC(=O)O)C(=O)NCc2ccccc2)cc1OC
System: Aminopeptidase N (Sus scrofa, UniProt P15145)
Classification: Satisfied

// switching to the query compound
Dear colleague, could you confirm whether IC50 of COc1ccc(/C=C/C(=O)N[C@@H](CCC(=O)Nc2ccc(C)cc2)C(=O)Nc2ccc(C)cc2)cc1OC falls below 200 µM? Thanks.
Not satisfied

###

- System: UniProtKB P08253
- Sequence (P08253 whole entry): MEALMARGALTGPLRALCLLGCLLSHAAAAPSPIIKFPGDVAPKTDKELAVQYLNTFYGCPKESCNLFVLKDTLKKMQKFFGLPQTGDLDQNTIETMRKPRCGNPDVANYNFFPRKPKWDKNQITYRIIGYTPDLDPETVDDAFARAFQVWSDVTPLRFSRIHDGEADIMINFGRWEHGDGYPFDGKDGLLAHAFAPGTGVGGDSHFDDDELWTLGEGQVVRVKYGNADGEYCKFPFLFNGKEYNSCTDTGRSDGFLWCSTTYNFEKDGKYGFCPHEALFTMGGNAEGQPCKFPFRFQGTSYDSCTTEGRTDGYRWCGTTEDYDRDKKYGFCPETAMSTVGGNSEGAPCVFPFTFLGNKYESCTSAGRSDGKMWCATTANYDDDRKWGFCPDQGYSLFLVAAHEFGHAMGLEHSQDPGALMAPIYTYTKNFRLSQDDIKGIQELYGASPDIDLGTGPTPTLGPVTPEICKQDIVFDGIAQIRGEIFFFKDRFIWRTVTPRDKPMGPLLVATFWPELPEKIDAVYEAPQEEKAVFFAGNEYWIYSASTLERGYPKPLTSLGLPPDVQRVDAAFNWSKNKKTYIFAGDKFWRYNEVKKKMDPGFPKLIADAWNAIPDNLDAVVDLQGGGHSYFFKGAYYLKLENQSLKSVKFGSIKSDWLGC
- Protocol details: Inhibition of MMP2
- Condition description: read-out: IC50
Please respond with reported IC50 for every item in the list.
Numbers only, in µM.

Below are worked cases with known answers.
Compound: COc1ccc(/C=C/C(=O)N[C@@H](CCC(=O)O)C(=O)Nc2ccc(Cl)cc2)cc1OC
IC50 [µM]: 59.9

Compound: CNC(=O)[C@H](CCC(=O)O)NC(=O)/C=C/c1ccc(OC)c(OC)c1
IC50 [µM]: 159

Compound: COc1ccc(/C=C/C(=O)N[C@@H](CCC(=O)O)C(=O)Nc2ccc(F)cc2)cc1OC
IC50 [µM]: 47.6

Please state, for each entry, its recorded IC50.
1. COC(=O)C(C)NC(=O)[C@H](CCC(=O)O)NC(=O)/C=C/c1ccc(OC)c(OC)c1 (stereo partly drawn)
2. COc1ccc(/C=C/C(=O)N[C@@H](CCC(=O)O)C(=O)Nc2cc(F)cc(F)c2)cc1OC
3. COc1ccc(/C=C/C(=O)N[C@@H](CCC(=O)Nc2ccc(C)cc2)C(=O)Nc2ccc(C)cc2)cc1OC
4. COc1ccc(/C=C/C(=O)N[C@@H](CCC(=O)O)C(=O)Nc2cccc(Cl)c2)cc1OC
5. COC(=O)C(Cc1ccc(F)cc1)NC(=O)[C@H](CCC(=O)O)NC(=O)/C=C/c1ccc(OC)c(OC)c1 (stereo partly drawn)

1. 83.2
2. 116
3. 398
4. 121
5. 76.5

Please state, for each entry, its recorded IC50.
1. COc1ccc(/C=C/C(=O)N[C@@H](CCC(=O)Nc2ccc(Cl)cc2)C(=O)Nc2ccc(Cl)cc2)cc1OC
2. COc1ccc(/C=C/C(=O)N[C@@H](CCC(=O)O)C(=O)NCc2ccccc2)cc1OC
3. COc1ccc(/C=C/C(=O)N[C@@H](CCC(=O)Nc2ccc(F)cc2)C(=O)Nc2ccc(F)cc2)cc1OC
4. COC(=O)CNC(=O)[C@H](CCC(=O)O)NC(=O)/C=C/c1ccc(OC)c(OC)c1
5. COc1ccc(/C=C/C(=O)N[C@@H](CCC(=O)O)C(=O)NCC(C)C)cc1OC

1. 471
2. 236
3. 368
4. 79.6
5. 256

Please state, for each entry, its recorded IC50.
1. COc1ccc(/C=C/C(=O)N[C@@H](CCC(=O)O)C(=O)Nc2ccc(C)cc2)cc1OC
2. CCNC(=O)[C@H](CCC(=O)O)NC(=O)/C=C/c1ccc(OC)c(OC)c1
3. COc1ccc(/C=C/C(=O)N[C@@H](CCC(=O)Nc2ccccc2F)C(=O)Nc2ccccc2F)cc1OC
4. COc1ccc(/C=C/C(=O)N[C@@H](CCC(=O)O)C(=O)Nc2ccccc2Cl)cc1OC

[37.8, 211, 471, 64.3]

For the compound COC(=O)CC(NC(=O)[C@H](CCC(=O)O)NC(=O)/C=C/c1ccc(OC)c(OC)c1)C(=O)OC (stereo partly drawn) , what IC50 is on record?
101

###

- System: Aminopeptidase N (Sus scrofa)
- Sequence (P15145 whole entry): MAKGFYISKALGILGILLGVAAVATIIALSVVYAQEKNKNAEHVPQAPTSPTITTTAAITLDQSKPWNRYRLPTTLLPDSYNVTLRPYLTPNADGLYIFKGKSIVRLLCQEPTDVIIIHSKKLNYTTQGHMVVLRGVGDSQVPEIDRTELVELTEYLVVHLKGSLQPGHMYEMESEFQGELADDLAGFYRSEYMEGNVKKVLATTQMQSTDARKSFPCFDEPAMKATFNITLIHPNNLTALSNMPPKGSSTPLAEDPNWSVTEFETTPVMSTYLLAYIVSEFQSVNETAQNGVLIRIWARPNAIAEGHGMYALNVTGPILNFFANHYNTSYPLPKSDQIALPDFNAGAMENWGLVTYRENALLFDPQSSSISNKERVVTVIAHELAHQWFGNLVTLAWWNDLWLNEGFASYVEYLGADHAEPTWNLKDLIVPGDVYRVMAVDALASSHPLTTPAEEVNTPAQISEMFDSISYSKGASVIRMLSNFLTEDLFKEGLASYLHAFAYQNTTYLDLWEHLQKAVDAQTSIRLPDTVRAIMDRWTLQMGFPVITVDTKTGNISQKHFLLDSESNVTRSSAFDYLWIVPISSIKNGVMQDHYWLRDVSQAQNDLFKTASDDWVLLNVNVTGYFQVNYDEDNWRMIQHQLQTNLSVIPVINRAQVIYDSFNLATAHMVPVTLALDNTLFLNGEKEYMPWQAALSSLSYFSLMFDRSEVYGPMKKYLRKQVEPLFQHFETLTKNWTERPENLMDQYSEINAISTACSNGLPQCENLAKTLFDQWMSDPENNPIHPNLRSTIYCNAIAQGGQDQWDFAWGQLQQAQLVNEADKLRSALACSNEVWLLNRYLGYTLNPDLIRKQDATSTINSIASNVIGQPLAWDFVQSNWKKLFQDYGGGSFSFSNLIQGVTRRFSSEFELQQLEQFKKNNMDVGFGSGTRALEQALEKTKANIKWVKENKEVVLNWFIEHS
- Protocol details: Inhibition of pig kidney microsomal aminopeptidase N after 30 mins by UV-VIS spectrophotometry
- Condition description: read-out: IC50
Readout: pIC50
Give bare numbers, as −log10 of the molar value.

Below are worked cases with known answers.
Molecule: COC(=O)C(NC(=O)[C@H](CCC(=O)O)NC(=O)/C=C/c1ccc(OC)c(OC)c1)C(C)C (some centres undefined)
System: Aminopeptidase N (Sus scrofa)
Endpoint value: 4.16
--
Molecule: COC(=O)CC(NC(=O)[C@H](CCC(=O)O)NC(=O)/C=C/c1ccc(OC)c(OC)c1)C(=O)OC (some centres undefined)
System: Aminopeptidase N (Sus scrofa)
Endpoint value: 4.22
--
Molecule: COC(=O)C(C)NC(=O)[C@H](CCC(=O)O)NC(=O)/C=C/c1ccc(OC)c(OC)c1 (some centres undefined)
System: Aminopeptidase N (Sus scrofa)
Endpoint value: 4.26
--
Molecule: CCCNC(=O)[C@H](CCC(=O)O)NC(=O)/C=C/c1ccc(OC)c(OC)c1
System: Aminopeptidase N (Sus scrofa)
Endpoint value: 3.62

Please state, for each entry, its recorded pIC50.
1. CCNC(=O)[C@H](CCC(=O)O)NC(=O)/C=C/c1ccc(OC)c(OC)c1
2. COC(=O)C(Cc1ccc(F)cc1)NC(=O)[C@H](CCC(=O)O)NC(=O)/C=C/c1ccc(OC)c(OC)c1 (some centres undefined)
3. COc1ccc(/C=C/C(=O)N[C@@H](CCC(=O)O)C(=O)Nc2ccc(Cl)cc2)cc1OC
4. COc1ccc(/C=C/C(=O)N[C@@H](CCC(=O)Nc2ccc(Br)cc2)C(=O)Nc2ccc(Br)cc2)cc1OC
5. COc1ccc(/C=C/C(=O)N[C@@H](CCC(=O)O)C(=O)Nc2ccccc2Cl)cc1OC

1. 3.73
2. 4.36
3. 4.46
4. 3.24
5. 4.42

###

- System: UniProtKB P08253
- Protocol details: Inhibition of MMP2
- Condition description: read-out: IC50
Please respond with reported IC50 for every item in the list.

Below are worked cases with known answers.
Compound: CCCNC(=O)[C@H](CCC(=O)O)NC(=O)/C=C/c1ccc(OC)c(OC)c1
IC50: 284 µM

Compound: COc1ccc(/C=C/C(=O)N[C@@H](CCC(=O)O)C(=O)Nc2ccc(Br)cc2)cc1OC
IC50: 71.2 µM

Please state, for each entry, its recorded IC50.
1. COc1ccc(/C=C/C(=O)N[C@@H](CCC(=O)O)C(=O)Nc2ccccc2F)cc1OC
2. COC(=O)C(NC(=O)[C@H](CCC(=O)O)NC(=O)/C=C/c1ccc(OC)c(OC)c1)C(C)C (stereo not given in full)

1: 71.4 µM; 2: 76.8 µM

Observed IC50 on UniProtKB P08253 for COC(=O)CC(NC(=O)CC[C@H](NC(=O)/C=C/c1ccc(OC)c(OC)c1)C(=O)NC(CC(=O)OC)C(=O)OC)C(=O)OC (stereo not given in full) , please.
341 µM
